Provenance of the data: the supplement of paper PMC9233669

Tested on: biotinyl-Trp-oxazolone
Test Protocol: self-aminoacylation, catalytic enhancement (BWO) (fold over background); higher = more active; k-Seq, kA / k0A0; sequences stand for … in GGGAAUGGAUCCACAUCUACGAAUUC…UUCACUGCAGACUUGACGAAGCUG
Fewer inactive variants are shown than the library holds.
Observed Property: self-aminoacylation

{"Residue Sequence": "GUUACCAUGGUCAUCGAGUGA [Fam2.1 aminoacylation ribozyme variant]", "Target Desc": "biotinyl-Trp-oxazolone", "self-aminoacylation": 10.3}
{"Residue Sequence": "CCACAGUUCAAGCAAUGGGUC [Fam1B.1 aminoacylation ribozyme variant]", "Target Desc": "biotinyl-Trp-oxazolone", "self-aminoacylation": 0.726}
{"Residue Sequence": "AAGUUGGCUCAUAGUCGCAAG [Fam3.1 aminoacylation ribozyme variant]", "Target Desc": "biotinyl-Trp-oxazolone", "self-aminoacylation": 2.44}
{"Residue Sequence": "AAGUGUGCGAAUAGUCGCAAG [Fam3.1 aminoacylation ribozyme variant]", "Target Desc": "biotinyl-Trp-oxazolone", "self-aminoacylation": 1.38}
{"Residue Sequence": "AAGUUUGCUUAUAGUAGCAAG [Fam3.1 aminoacylation ribozyme variant]", "Target Desc": "biotinyl-Trp-oxazolone", "self-aminoacylation": 0.878}
{"Residue Sequence": "CUACUUCUAACAAUCGGUCCG [Fam1A.1 aminoacylation ribozyme variant]", "Target Desc": "biotinyl-Trp-oxazolone", "self-aminoacylation": 0.63}
{"Residue Sequence": "AUUCACCAAGGUCAACGGGUG [Fam2.2 aminoacylation ribozyme variant]", "Target Desc": "biotinyl-Trp-oxazolone", "self-aminoacylation": 6.16}
{"Residue Sequence": "AGGUUUGCUAAUAGGCGCAAG [Fam3.1 aminoacylation ribozyme variant]", "Target Desc": "biotinyl-Trp-oxazolone", "self-aminoacylation": 1.18}

So, AUUACCCUGAUCAUAGAGUGA [Fam2.1 aminoacylation ribozyme variant] ? Its self-aminoacylation was 17.7

Reported self-aminoacylation ( AUUACCCUGGUGAUCGAGUCA [Fam2.1 aminoacylation ribozyme variant] ) = 0.415

Entry AUUCACCUAGGUCACCGUGUG [Fam2.2 aminoacylation ribozyme variant] — recorded self-aminoacylation = 1.24

The reported value for GUACUUCACACAAUCGGUCUG [Fam1A.1 aminoacylation ribozyme variant] in terms of self-aminoacylation is 1.67

For this sequence ( AUUAGCCUGAUCAUCGAGUGA [Fam2.1 aminoacylation ribozyme variant] ), measured self-aminoacylation is 11

What the record says about AUUACCCUGGUCAAAGAGUGA [Fam2.1 aminoacylation ribozyme variant] : self-aminoacylation is 10.5

Given item ACUUCCCUGGUCAUCGAGUGA [Fam2.1 aminoacylation ribozyme variant] , the value recorded as its self-aminoacylation is 12.1

GET /value?item= AAGUUUGCUAACAGUCUCAAG [Fam3.1 aminoacylation ribozyme variant] &field=self-aminoacylation returns 1.64

The sequence AUUACCCUGGUCGCCGAGUGA [Fam2.1 aminoacylation ribozyme variant] showed self-aminoacylation equal to 4.48

Noted for AUUCACCUUGUUCAUCGGGUG [Fam2.2 aminoacylation ribozyme variant] : its self-aminoacylation reads 2.91
